Target: CK1ε (Homo sapiens)
Experiment: CK1ε kinase assay (Caliper LabChip electrophoretic separation of fluoresceinated peptide substrate and product)
Assay type: biochemical
Conditions: 200 pM CK1ε, 50 μM ATP, 1.5 μM peptide, 22 hours at room temperature; read-out: CK1ε IC50 range
pIC50: −log10 of the molar value.

{"Compound": "CC1CN(C(=O)NC(C)(C)C)Cc2c(C(N)=O)c(-c3cccc(Cl)c3)nn21 (stereo not drawn) [A8]", "pIC50": "8.00 to 11.00"}
{"Compound": "NC(=O)c1c(-c2ccc(F)c(Cl)c2)nn2c1CN(C(=O)NC1CC3(C1)CC3(F)F)CC2 (single isomer, unassigned) [Compound 320]", "pIC50": "8.00 to 11.00"}
{"Compound": "NC(=O)c1c(-c2cccc(Cl)c2)nn2c1CN(C(=O)NC1(c3ccc(F)cc3)CC(F)(F)C1)CC2 [Compound 309]", "pIC50": "8.00 to 11.00"}
{"Compound": "CC(C)(O)C12CCC(NC(=O)N3CCn4nc(-c5ccc(F)c(Cl)c5)c(C(N)=O)c4C3)(CC1)CC2 [Compound A62]", "pIC50": "8.00 to 11.00"}
{"Compound": "CC1(C)C2CCC1(NC(=O)N1CCn3nc(-c4ccc(F)c(Cl)c4)c(C(N)=O)c3C1)CC2O (stereo not drawn) [Compound A66]", "pIC50": "8.00 to 11.00"}
{"Compound": "CC(C)(C)NC(=O)N1CCn2nc(-c3cnc(N4CCCC4)nc3)c(C(N)=O)c2C1 [Compound 146]", "pIC50": "5.70 to 7.00"}
{"Compound": "NC(=O)c1c(-c2cccc(Cl)c2)nn2c1CN(C(=O)N[C@H]1C[C@@H](c3ccc(F)cc3)C1)CC2 [Compound 277]", "pIC50": "8.00 to 11.00"}
{"Compound": "CC(C)(C)NC(=O)N1CCn2nc(-c3cc(F)cc(F)c3)c(C(N)=O)c2C1 [Compound 105]", "pIC50": "7.00 to 8.00"}
{"Compound": "CC(C)(C)NC(=O)N1CCn2nc(-c3cccc(N)c3)c(C(N)=O)c2C1 [Compound 120]", "pIC50": "5.70 to 7.00"}

###

Target: CK1ε (Homo sapiens)
Assay: CK1ε kinase assay (Caliper LabChip electrophoretic separation of fluoresceinated peptide substrate and product)
Type: biochemical
Conditions: 200 pM CK1ε, 50 μM ATP, 1.5 μM peptide, 22 hours at room temperature; read-out: CK1ε IC50 range
pIC50: −log10 of the molar value.
Measured endpoint: pIC50

{"Molecule": "N#CCC1(NC(=O)N2CCn3nc(-c4ccc(F)c(Cl)c4)c(C(N)=O)c3C2)CCC1 [Compound 220]", "Measured endpoint": "pIC50", "Reported measurement": "8.00 to 11.00"}
{"Molecule": "N#Cc1ccc(NC(=O)N2CCn3nc(-c4cccc(Cl)c4)c(C(N)=O)c3C2)cc1 [Compound 166]", "Measured endpoint": "pIC50", "Reported measurement": "8.00 to 11.00"}
{"Molecule": "N#CCC1(NC(=O)N2CCn3nc(-c4ccc(Cl)c(Cl)c4)c(C(N)=O)c3C2)CCC1 [Compound 222]", "Measured endpoint": "pIC50", "Reported measurement": "8.00 to 11.00"}
{"Molecule": "NC(=O)c1c(-c2ccc(Cl)c(Cl)c2)nn2c1CN(C(=O)NC1(C(F)F)CCC1)CC2 [Compound 237]", "Measured endpoint": "pIC50", "Reported measurement": "8.00 to 11.00"}
{"Molecule": "CC1(CNC(=O)N2CCn3nc(-c4ccc(F)c(Cl)c4)c(C(N)=O)c3C2)CC(F)(F)C1 [Compound 229]", "Measured endpoint": "pIC50", "Reported measurement": "8.00 to 11.00"}
{"Molecule": "NC(=O)c1c(-c2cccc(Cl)c2)nn2c1CN(C(=O)NC1CC(F)(F)C1)CC2CF (single isomer, unassigned) [Compound A112]", "Measured endpoint": "pIC50", "Reported measurement": "8.00 to 11.00"}
{"Molecule": "N#CC1(NC(=O)N2CCn3nc(-c4ccc(Cl)c(Cl)c4)c(C(N)=O)c3C2)CCOC1 (stereo not shown) [compound 335]", "Measured endpoint": "pIC50", "Reported measurement": "8.00 to 11.00"}
{"Molecule": "NC(=O)c1c(-c2ccc(F)c(Cl)c2)nn2c1CN(C(=O)NC1CC(F)(F)C1)CC2C(F)(F)F (single isomer, unassigned) [Compound A126]", "Measured endpoint": "pIC50", "Reported measurement": "8.00 to 11.00"}
{"Molecule": "CC(C)(C)NC(=O)N1CCn2nc(-c3cccc(Cl)c3Cl)c(C(N)=O)c2C1 [Compound 130]", "Measured endpoint": "pIC50", "Reported measurement": "7.00 to 8.00"}
{"Molecule": "CC(C)(C)NC(=O)N1CCn2nc(-c3cc(F)cc(C#N)c3)c(C(N)=O)c2C1 [Compound 115]", "Measured endpoint": "pIC50", "Reported measurement": "5.70 to 7.00"}
{"Molecule": "NC(=O)c1c(-c2cccc(Cl)c2)nn2c1CN(C(=O)NC13C4C5C1C1C3C4C51F)CC2 (stereo not shown) [Compound A88]", "Measured endpoint": "pIC50", "Reported measurement": "8.00 to 11.00"}
{"Molecule": "NC(=O)c1c(-c2cccc(Cl)c2)nn2c1CN(C(=O)NC1(C(F)F)CCC1)CC2 [Compound 236]", "Measured endpoint": "pIC50", "Reported measurement": "8.00 to 11.00"}
{"Molecule": "NC(=O)c1c(-c2ccc(Cl)c(Cl)c2)nn2c1CN(C(=O)N[C@H]1C[C@@H](c3ccc(F)cc3)C1)CC2 [Compound 278]", "Measured endpoint": "pIC50", "Reported measurement": "8.00 to 11.00"}
{"Molecule": "NC(=O)c1c(-c2cccc(F)c2)nn2c1CN(C(=O)Nc1ccc(F)c(F)c1)CC2 [Compound 29]", "Measured endpoint": "pIC50", "Reported measurement": "7.00 to 8.00"}
{"Molecule": "CC(C)(C)NC(=O)N1Cc2c(C(N)=O)c(-c3ccc(F)c(Cl)c3)nn2CC1C(F)(F)F (single isomer, unassigned) [Compound 346]", "Measured endpoint": "pIC50", "Reported measurement": "5.70 to 7.00"}
{"Molecule": "NC(=O)c1c(-c2cccc(Cl)c2)nn2c1CN(C(=O)NC13C4C5C6C4C1C6C53)CC2 (stereo not shown) [Compound A86]", "Measured endpoint": "pIC50", "Reported measurement": "8.00 to 11.00"}
{"Molecule": "CC(C)(NC(=O)N1CCn2nc(-c3ccc(F)c(Cl)c3)c(C(N)=O)c2C1)c1ccc(C#N)cc1 [Compound 187]", "Measured endpoint": "pIC50", "Reported measurement": "8.00 to 11.00"}
{"Molecule": "N#Cc1ccc(NC(=O)N2Cc3c(C(N)=O)c(-c4cccc(Cl)c4)nn3C(CF)C2)cc1 (stereo not shown) [Compound A4]", "Measured endpoint": "pIC50", "Reported measurement": "8.00 to 11.00"}
{"Molecule": "N#Cc1ccc(C2(NC(=O)N3CCn4nc(-c5cccc(Cl)c5)c(C(N)=O)c4C3)CC(F)(F)C2)cc1 [Compound 315]", "Measured endpoint": "pIC50", "Reported measurement": "8.00 to 11.00"}
{"Molecule": "CC(C)(C)NC(=O)N1CCn2nc(-c3cccnc3)c(C(N)=O)c2C1 [Compound 111]", "Measured endpoint": "pIC50", "Reported measurement": "5.70 to 7.00"}
{"Molecule": "CC(C)(C)NC(=O)N1Cc2c(C(N)=O)c(-c3cccc(F)c3)nn2C2(CC2)C1 [Compound A131]", "Measured endpoint": "pIC50", "Reported measurement": "7.00 to 8.00"}
{"Molecule": "CC(C)(C)NC(=O)N1CCn2nc(-c3cccc4cnccc34)c(C(N)=O)c2C1 [Compound 134]", "Measured endpoint": "pIC50", "Reported measurement": "5.70 to 7.00"}
{"Molecule": "NC(=O)c1c(-c2ccc(F)c(Cl)c2)nn2c1CN(C(=O)NC1CC(F)(F)C1)CC21CC1 [Compound A133]", "Measured endpoint": "pIC50", "Reported measurement": "8.00 to 11.00"}
{"Molecule": "N#Cc1cccc(NC(=O)N2CCn3nc(-c4cccc(F)c4)c(C(N)=O)c3C2)c1 [Compound 54]", "Measured endpoint": "pIC50", "Reported measurement": "8.00 to 11.00"}
{"Molecule": "NC(=O)c1c(-c2cccc(F)c2)nn2c1CN(C(=O)Nc1ccncc1)CC2 [Compound 92]", "Measured endpoint": "pIC50", "Reported measurement": "5.70 to 7.00"}

###

Biological target: CK1ε (Homo sapiens, UniProt P49674)
Sequence (P49674 whole entry): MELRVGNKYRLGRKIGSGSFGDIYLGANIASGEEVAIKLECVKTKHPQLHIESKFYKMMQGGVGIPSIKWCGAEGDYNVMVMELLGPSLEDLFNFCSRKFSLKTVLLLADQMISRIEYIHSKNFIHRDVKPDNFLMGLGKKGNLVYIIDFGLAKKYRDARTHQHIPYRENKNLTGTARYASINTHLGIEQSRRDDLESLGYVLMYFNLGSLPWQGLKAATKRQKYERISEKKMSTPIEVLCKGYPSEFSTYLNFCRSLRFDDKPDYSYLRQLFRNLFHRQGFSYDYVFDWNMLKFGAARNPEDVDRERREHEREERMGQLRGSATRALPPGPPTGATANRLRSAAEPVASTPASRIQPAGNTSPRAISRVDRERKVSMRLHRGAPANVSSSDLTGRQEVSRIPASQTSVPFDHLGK
Test: CK1ε kinase assay (Caliper LabChip electrophoretic separation of fluoresceinated peptide substrate and product)
Format: biochemical
Settings: 200 pM CK1ε, 50 μM ATP, 1.5 μM peptide, 22 hours at room temperature; read-out: CK1ε IC50 range
Measured endpoint: IC50

{"Compound": "NC(=O)c1c(-c2cccc(F)c2)nn2c1CN(C(=O)Nc1cc(Cl)ccc1F)CC2", "Assayed system": "CK1ε (Homo sapiens, UniProt P49674)", "Reported measurement": "10 to 100 nM"}
{"Compound": "NC(=O)c1c(-c2cccc(Cl)c2)nn2c1CN(C(=O)NC1(C(F)F)CC(F)(F)C1)CC2", "Assayed system": "CK1ε (Homo sapiens, UniProt P49674)", "Reported measurement": "0.01 to 10 nM"}
{"Compound": "CC(C)(C)NC(=O)N1CCn2nc(-c3cc(Cl)cc(C#N)c3)c(C(N)=O)c2C1", "Assayed system": "CK1ε (Homo sapiens, UniProt P49674)", "Reported measurement": "10 to 100 nM"}
{"Compound": "CC1CN(C(=O)NC(C)(C)C)Cc2c(C(N)=O)c(-c3ccc(Cl)c(Cl)c3)nn21 (centres unmarked) [Compound A34]", "Assayed system": "CK1ε (Homo sapiens, UniProt P49674)", "Reported measurement": "0.01 to 10 nM"}
{"Compound": "C[C@@]12C[C@H]3C[C@@](Cl)(C1)C[C@](NC(=O)N1CCn4nc(-c5ccc(F)c(Cl)c5)c(C(N)=O)c4C1)(C3)C2", "Assayed system": "CK1ε (Homo sapiens, UniProt P49674)", "Reported measurement": "0.01 to 10 nM"}
